Attribution: patent US20220195055A1

Molecular target: T1, CD25 protein (Sino Biological, 10165-H08H) (UniProt P01589 22-213)
T1 construct: Bought recombinant protein; It speaks elsewhere of human CD25; also called antigen CD25; IL-2Rα
T1 sequence (looked up): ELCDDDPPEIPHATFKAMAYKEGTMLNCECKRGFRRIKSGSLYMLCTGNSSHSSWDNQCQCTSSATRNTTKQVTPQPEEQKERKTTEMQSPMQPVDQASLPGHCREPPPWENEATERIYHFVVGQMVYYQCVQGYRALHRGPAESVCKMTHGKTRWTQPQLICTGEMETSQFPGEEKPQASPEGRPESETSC
Assay: SPR (BIAcore 8K); antibody captured by anti-human IgG Fc, CD25 protein as analyte, 1:1 model

- BINDER: "CD25Q2-BA9-IgG1 (antibody, V domains shown, IgG1 expressed in HEK293; also called CD25Q-BA9-IgG1) VH: QVQLQQWGAGLLKPSETLSLTCAVYGGSFSGYYWSWIRQPPGKGLEWIGEIDHSGSTIYNPSLKSRVTISLDTSKNQFSLKLSSVTAADTALYYCARGEAFDIWGQGTMVTVSS VL: DIVMTQSPSTLSASVGDRVTITCRASQSLRSYLAWYQQKPGKAPKLLIYKASSLESGVPSRFSGSGSGTEFTLTISSLQPDDFATYYCQQYNSYSWTFGQGTKVEIKR"
  Kd / pM: 843
